The next entries give measured pKi for UniProt Q9WMX2.
Sequence (Q9WMX2 1027-1657): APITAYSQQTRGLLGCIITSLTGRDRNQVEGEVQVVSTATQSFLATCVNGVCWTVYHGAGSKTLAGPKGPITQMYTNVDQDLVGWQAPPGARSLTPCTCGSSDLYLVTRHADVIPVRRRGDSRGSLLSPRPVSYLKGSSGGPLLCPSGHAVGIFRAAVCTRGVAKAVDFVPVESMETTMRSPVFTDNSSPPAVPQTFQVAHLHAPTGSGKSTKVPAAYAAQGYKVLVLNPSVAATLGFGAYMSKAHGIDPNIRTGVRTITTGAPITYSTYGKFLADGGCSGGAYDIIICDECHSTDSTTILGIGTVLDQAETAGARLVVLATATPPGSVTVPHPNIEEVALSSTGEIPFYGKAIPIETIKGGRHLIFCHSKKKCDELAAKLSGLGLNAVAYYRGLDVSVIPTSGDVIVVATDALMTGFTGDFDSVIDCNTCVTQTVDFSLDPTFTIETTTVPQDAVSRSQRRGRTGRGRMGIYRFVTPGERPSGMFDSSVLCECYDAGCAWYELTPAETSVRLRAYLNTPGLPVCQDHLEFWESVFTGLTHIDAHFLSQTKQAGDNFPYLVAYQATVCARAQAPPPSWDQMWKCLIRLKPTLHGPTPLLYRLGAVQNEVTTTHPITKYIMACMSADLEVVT
pKi: −log10 of the molar value.
REPORTED_PROPERTY: pKi

INSERT INTO assay_data (cpd_smiles, assay_system, value) VALUES
  ('CCC[C@H](NC(=O)[C@@H]1C[C@@]2(CC(=O)N(c3cccc(Cl)c3)C2)CN1C(=O)[C@@H](NC(=O)CC1CCCCC1)C(C)(C)C)C(=O)C(=O)NC1CC1', 'UniProt Q9WMX2', '< 6.15'),
  ('CCC[C@H](NC(=O)[C@@H]1C[C@@]2(CC(=O)N(c3ccccc3)C2)CN1C(=O)[C@@H](NC(=O)OC1CCCC1)C(C)(C)C)C(=O)C(=O)NC1CC1', 'UniProt Q9WMX2', '6.15 to 6.39'),
  ('CCC[C@H](NC(=O)[C@@H]1C[C@]2(CC(=O)N(c3ccccc3)C2)CN1C(=O)[C@@H](NC(=O)OC1CCCC1)C(C)(C)C)C(=O)C(=O)NC1CC1', 'UniProt Q9WMX2', '> 6.39');
